assay: Plasma compound exposure in rats (tail bleed, day 6); format: in vivo; details: plasma, rat, 30 mg/kg po qd
For each of the molecules below, state its Cmax.
# output: numeric value plus its unit

C=CC(=O)N1CCC[C@@H](n2nc(-c3ccc(Oc4ccccc4)cc3)c3c(N)ncnc32)C1 = 561 nM

Need Cmax for each of these molecules.
1. CC#CC(=O)N1CC[C@]2(C1)C[C@H](n1nc(-c3cnn(Cc4ccccc4C(F)(F)F)c3)c(C(N)=O)c1N)C2
2. CC#CC(=O)N1CC[C@]2(C1)C[C@H](n1nc(-c3cnn(Cc4cccc(C(F)(F)F)c4)c3)c(C(N)=O)c1N)C2
3. C=CC(=O)Nc1cccc(Nc2nc(Nc3ccc(OCCOC)cc3)ncc2F)c1

1: 344 nM; 2: 720 nM; 3: 1730 nM

---

Exercise: for every item that follows, state its recorded pIC50.
test system: BTK (IL-6 production in primary CD19+ B cells); assay: Inhibition of IL-6 production in B cells co-stimulated with ODN 2006 and anti-hIgD; type: cell-based; settings: B-cell, anti-human IgD + ODN 2006
Answers are plain numbers, as −log10 of the molar value.

CC#CC(=O)N1CC[C@]2(C1)C[C@H](n1nc(-c3c(C)nn(Cc4cccc(C(F)(F)F)c4)c3C)c(C(N)=O)c1N)C2 = 8.04
CC#CC(=O)N1CC[C@]2(C1)C[C@H](n1nc(-c3cnn(Cc4cccc(F)c4C(F)(F)F)c3)c(C(N)=O)c1N)C2 = 9.15
CC#CC(=O)N1CC[C@]2(C1)C[C@H](n1nc(-c3cnn(Cc4cc(C(F)(F)F)ccc4OC)c3)c(C(N)=O)c1N)C2 = 7.14
CC#CC(=O)N1CC2(CC(n3nc(-c4cnn(Cc5cccc(C(F)(F)F)c5)c4)c(C(N)=O)c3N)C2)C1 = 8.96

Lab note: measured pIC50 of CC#CC(=O)N1CC[C@]2(C1)C[C@H](n1nc(-c3cnn(Cc4ccccc4C(F)(F)F)c3)c(C(N)=O)c1N)C2 was 9.30

---

I'd appreciate it if you could supply IC50 values for the items below.
biological target: human recombinant Txk (full length, GST-tagged) (Homo sapiens (Human), UniProt P42681); experiment: TXK Z'-LYTE assay; settings: read-out: TXK IC50, 100 μM ATP;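 further: FRET read-out of kinase phosphorylation of a synthetic peptide labelled with Coumarin and Fluorescein, scored by protease sensitivity of unphosphorylated peptide, incubated at 22 °C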
Sequence (P42681 whole entry): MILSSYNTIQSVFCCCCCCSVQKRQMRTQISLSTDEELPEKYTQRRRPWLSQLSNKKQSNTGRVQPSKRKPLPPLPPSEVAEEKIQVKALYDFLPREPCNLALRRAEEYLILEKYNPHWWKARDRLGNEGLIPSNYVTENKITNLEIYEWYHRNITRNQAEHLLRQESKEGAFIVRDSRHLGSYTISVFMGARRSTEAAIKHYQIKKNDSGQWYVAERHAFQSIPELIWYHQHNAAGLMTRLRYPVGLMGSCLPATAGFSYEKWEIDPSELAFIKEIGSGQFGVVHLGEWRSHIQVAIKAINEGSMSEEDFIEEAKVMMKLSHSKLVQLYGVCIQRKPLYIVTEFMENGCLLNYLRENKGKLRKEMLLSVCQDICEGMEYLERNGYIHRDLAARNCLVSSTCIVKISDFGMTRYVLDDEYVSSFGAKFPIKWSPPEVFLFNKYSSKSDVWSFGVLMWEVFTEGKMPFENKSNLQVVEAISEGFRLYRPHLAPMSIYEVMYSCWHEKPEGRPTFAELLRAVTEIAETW
One number for each entry, in nM.

Give IC50 for each of the items listed below.
1. CC#CC(=O)N1CC[C@]2(C1)C[C@H](n1nc(-c3cnn(Cc4cccc(C(F)F)c4)c3)c(C(N)=O)c1N)C2 [Example 36]
2. CC#CC(=O)N1CC[C@]2(C1)C[C@H](n1nc(-c3cnn(Cc4ccc(F)c(C(F)(F)F)c4)c3)c(C(N)=O)c1N)C2 [Example 30]
3. CC#CC(=O)N1CC[C@]2(C1)C[C@H](n1nc(-c3cnn(Cc4ccc(F)cc4)c3)c(C(N)=O)c1N)C2 [Example 29]
4. CC#CC(=O)N1CC[C@]2(C1)C[C@H](n1nc(-c3c(C)nn(Cc4cccc(C(F)(F)F)c4)c3C)c(C(N)=O)c1N)C2 [Example 21]

1. 50
2. 160
3. 92
4. 1900

---

I'd be grateful if you could share measured IC50 for these entries.
molecular target: human recombinant Txk (full length, GST-tagged) (Homo sapiens (Human)); experiment: TXK Z'-LYTE assay; settings: read-out: TXK IC50, 100 μM ATP
Give bare numbers, in nM.

CC#CC(=O)N1CC[C@]2(C1)C[C@H](n1nc(-c3cnn(Cc4ccccc4C#N)c3)c(C(N)=O)c1N)C2 = 150
CC#CC(=O)N1CC[C@]2(C1)C[C@H](n1nc(-c3cnn(Cc4ccccc4Cl)c3)c(C(N)=O)c1N)C2 = 110
C=CC(=O)Nc1cccc(Nc2nc(Nc3ccc(OCCOC)cc3)ncc2F)c1 = 22
CC#CC(=O)N1CC[C@]2(C1)C[C@H](n1nc(-c3cn(Cc4cccc(C)c4)nc3C)c(C(N)=O)c1N)C2 = 260
CC#CC(=O)N1CC[C@]2(C1)C[C@H](n1nc(-c3cnn(Cc4cccc(C5CC5)c4)c3)c(C(N)=O)c1N)C2 = 12
CC#CC(=O)N1CC[C@]2(C1)C[C@H](n1nc(-c3cnn(Cc4cccc(F)c4)c3)c(C(N)=O)c1N)C2 = 95
CC#CC(=O)N1CC[C@]2(C1)C[C@H](n1nc(-c3cnn(Cc4ccccc4C(F)(F)F)c3)c(C(N)=O)c1N)C2 = 130
C=CC(=O)N1CC[C@]2(C1)C[C@H](n1nc(-c3cnn(Cc4cccc(C(F)(F)F)c4F)c3)c(C(N)=O)c1N)C2 = 3000

Batch request: IC50 for each of the following compounds.
1. CC#CC(=O)N1CC[C@]2(C1)C[C@H](n1nc(-c3cnn(Cc4cccc(C(F)(F)F)c4C#N)c3)c(C(N)=O)c1N)C2
2. CC#CC(=O)N1CC2(CC(n3nc(-c4cnn(Cc5cccc(C(F)(F)F)c5)c4)c(C(N)=O)c3N)C2)C1
3. CC#CC(=O)N1CC[C@]2(C1)C[C@H](n1nc(-c3cnn(Cc4cccc(F)c4C(F)(F)F)c3)c(C(N)=O)c1N)C2

[100, 310, 150]

Here are 3 compounds. What values of IC50 were reported for them?
1. CC#CC(=O)N1CC[C@]2(C1)C[C@H](n1nc(-c3cnn(Cc4cccc(C(F)(F)F)c4)c3)c(C(N)=O)c1N)C2
2. CC#CC(=O)N1CC[C@]2(C1)C[C@H](n1nc(-c3cn(Cc4cccc(C(F)(F)F)c4)nc3C)c(C(N)=O)c1N)C2
3. CC#CC(=O)N1CC[C@]2(C1)C[C@H](n1nc(-c3cnn(Cc4cccc(C(F)(F)F)c4F)c3)c(C(N)=O)c1N)C2

46
220
59

human recombinant Txk (full length, GST-tagged) (Homo sapiens (Human)) IC50 of CC#CC(=O)N1CC[C@]2(C1)C[C@H](n1nc(-c3cnn(Cc4cccc(F)c4Cl)c3)c(C(N)=O)c1N)C2 is 84
